Cited source: patent US20230025732A1

Target: T1, human CD39 expressed at the cell surface (human, UniProt P49961 1-510)
T1 construct: On CHO transfectants, Hek-293T transfectants, Ramos and Mino tumor cells; also called huCD39; CHO-huCD39
T1 sequence: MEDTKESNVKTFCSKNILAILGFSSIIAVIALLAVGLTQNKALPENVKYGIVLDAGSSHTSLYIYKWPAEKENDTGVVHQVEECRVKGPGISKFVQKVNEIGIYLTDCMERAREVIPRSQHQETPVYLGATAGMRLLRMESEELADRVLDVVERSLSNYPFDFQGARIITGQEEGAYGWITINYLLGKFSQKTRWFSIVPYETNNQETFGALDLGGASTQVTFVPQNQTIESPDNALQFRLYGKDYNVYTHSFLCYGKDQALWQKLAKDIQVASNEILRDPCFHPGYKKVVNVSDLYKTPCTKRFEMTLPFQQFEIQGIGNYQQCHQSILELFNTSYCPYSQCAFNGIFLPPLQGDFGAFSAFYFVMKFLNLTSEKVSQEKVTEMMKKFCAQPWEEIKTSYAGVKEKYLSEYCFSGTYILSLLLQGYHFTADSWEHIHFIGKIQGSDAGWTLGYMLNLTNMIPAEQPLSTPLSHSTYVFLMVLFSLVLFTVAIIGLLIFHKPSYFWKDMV
Assay: flow cytometry titration on Ramos lymphoma cells (Mean of Fluorescence), panel L0

binder	binding result
mAb10 H2*L0 (antibody, human IgG1, V domains shown) VH: QVQLVQSGAEVKKPGASVKVSCKASGYTFTDYNMHWVRQAPGQRLEWMGYIVPLNGGSTFSQKFKGRATITVDTSASTAYMELSSLRSEDTAVYYCARGGTRFAYWGQGTLVTVSS VL: DIVMTQSPDSLAVSLGERATINCRASESVDNFGVSFMYWYQQKPGQPPKLLIYGASNQGSGVPDRFSGSGSGTDFTLTISSLQAEDVAVYYCQQTKEVPYTFGGGTKVEIK	binds
mAb4 H1L0 (antibody, human IgG1, V domains shown) VH: QVQLVQSGAEVKKPGASVKVSCKASGYTFTDYNMHWVRQAPGQRLEWMGYIVPLNGGSTFNQKFKGRVTITVDTSASTAYMELSSLRSEDTAVYYCARGGTRFAYWGQGTLVTVS VL: DIVMTQSPDSLAVSLGERATINCRASESVDNFGVSFMYWYQQKPGQPPKLLIYGASNQGSGVPDRFSGSGSGTDFTLTISSLQAEDVAVYYCQQTKEVPYTFGGGTKVEIK	binds
mAb22 H4*L0 (antibody, human IgG1, V domains shown) VH: QVQLVQSGAEVKKPGASVKVSCKASGYTFTDYNMHWVRQAPGQRLEWIGYIVPLNGGSTFSQKFQGRATITVDTSARTAYMELSSLRSEDTAVYYCARGGTRFAYWGQGTLVTVSS VL: DIVMTQSPDSLAVSLGERATINCRASESVDNFGVSFMYWYQQKPGQPPKLLIYGASNQGSGVPDRFSGSGSGTDFTLTISSLQAEDVAVYYCQQTKEVPYTFGGGTKVEIK	binds
